tested on: human blood platelets; test: Inhibition of the ADP-induced aggregation of human blood platelets in the presence of fibrinogen (PA); format: cell-based; details: Platelet; washed human platelets, stimulated with ADP in the presence of fibrinogen; aggregometer
pIC50 overview
The scale used: pIC50 is minus the common logarithm of the concentration in molar units.

Below, each entry is followed by its recorded pIC50 result.
Molecule Smiles | pIC50
CC(C)CC(=O)N[C@@H](CCCNC(=O)Cc1ccc(C(=N)N)cc1)CC(=O)O | 7.00
N=C(N)c1ccc(CC(=O)NCCC[C@@H](CC(=O)O)NC(=O)CC23CC4CC(CC(C4)C2)C3)cc1 | 7.17
Cc1ccc(S(=O)(=O)N[C@@H](CCCNC(=O)Cc2ccc(C(=N)N)cc2)CC(=O)O)cc1 | 6.19
CC(C)CC(=O)N[C@@H](CCCCNC(=O)c1ccc(C(=N)N)cc1)CC(=O)O | 7.82

Q. Request body: readout pIC50, system human blood platelets, query `N=C(N)c1ccc(CC(=O)NCCC[C@@H](CC(=O)O)NC(=O)CCC23CC4CC(CC(C4)C2)C3)cc1` . Return the value.
A. 7.21
